system: PC-3; test: NCI tumour cell line growth inhibition, 48 h
Active and inactive are the calls of the source. No stated cut-off is given here; in the data, active = GI50 up to about 1.1 µM and inactive = higher.
Can you answer with just one of these options? active, inactive

Worked examples, 8 molecules total:
Molecule	Group Label
O=C1Nc2nnc(S)n2NC12c1ccccc1-c1ccccc12	inactive
CC(C#N)(NO)C(C)(C#N)NO (stereo not given)	inactive
O=c1c2ncn(C3CCCCO3)c2n(-c2ccccc2)c(=S)n1-c1ccccc1 (stereo not given)	inactive
CCOc1ccccc1/C=C1\NC(=O)N(/C=C2\C(=O)Oc3ccccc3C2=O)C1=O	inactive
CCOC(=O)C1Cc2ccc(C)cc2C1=O (stereo not given)	inactive
COc1ccc(-c2cc(-c3ccccc3)n(C3OCC(OC(C)=O)C(OC(C)=O)C3OC(C)=O)c(=S)c2C#N)cc1 (stereo not given)	inactive
Cc1ccc(S[C@@H](C)[C@@](O)(C(N)=O)c2ccccc2)cc1	inactive
CNc1nc(=S)[nH]c2sc3c(c12)CCCC3	inactive

Which outcome did this test record for the molecule CC(=O)Nc1ncc2c(n1)-c1ccccc1OC2c1ccccc1 (stereo not given) ?
inactive

Which outcome did this test record for the molecule NC1=NC(=O)/C(=C2\CCNC(=O)c3[nH]c(Br)cc32)N1 [HYMENIALDISINE] ?
inactive

Which outcome did this test record for the molecule C=CCOc1ccc(C2(c3ccc(OCC=C)cc3)C(=O)Nc3ccccc32)cc1 ?
inactive

Which outcome did this test record for the molecule CN(C)c1ccc(C2CC(c3ccc4ccccc4c3O)=NN2c2ccc([N+](=O)[O-])cc2[N+](=O)[O-])cc1 (stereo not given) ?
inactive

Which outcome did this test record for the molecule COc1ccc(C=C2C(C)=NN(c3cccc(Cl)c3)C23C(Cl)C(=O)N3c2nc3ccccc3s2)cc1 (stereo not given) ?
inactive

Which outcome did this test record for the molecule O=C1Nc2ccccc2/C1=N/N=c1\cccc[nH]1 ?
inactive

Which outcome did this test record for the molecule CCCCCCCCCCCCCC(=O)O[C@H]1CC[C@H](NC(=O)[C@H](OC)[C@H](O)[C@@H](O)[C@H](O)/C=C/C(C)C)C(=O)NC1 [BENGAMIDE A] ?
active

Which outcome did this test record for the molecule [N-]=[N+]=Nc1c(-c2ccccc2)c(=O)n(-c2ccccc2)c2ccccc12 ?
inactive

Which outcome did this test record for the molecule CC(=O)OC(CC(C)C)P1(=O)N(CC(C)(C)C)[C@@H]2CCCC[C@H]2N1CC(C)(C)C (stereo not given in full) ?
inactive

Which outcome did this test record for the molecule CC(=O)N1C(C(=O)NNc2ccccc2)CSC1c1ccccc1 (stereo not given) ?
inactive

Which outcome did this test record for the molecule CC1(C)N=C(N)N=C(N)N1c1cccc(OCc2cccc(N)c2)c1 ?
inactive

Which outcome did this test record for the molecule Cc1cn(C2CC(ON3C(=O)c4ccccc4C3=O)C(CO)O2)c(=O)[nH]c1=O (stereo not given) ?
inactive

----------
system: OVCAR-5; experiment: NCI tumour cell line growth inhibition, 48 h
Calls of active or inactive are those of the source. Cut-off read from the data, not from the text of the source: active = GI50 up to about 1.1 µM and inactive = higher.
Can you answer with just one of these options? active, inactive

Compound	Group Label
COc1ccc2c(c1)-c1nc(=S)n(CCCN(C)C)c3ccc([N+](=O)[O-])c(c13)N2	active
COC1(OC)C2(Cl)C3=CCCC=C3C1(Cl)C(Cl)=C2Cl	inactive
CCN(CC)CCCn1cnc2ncccc2c1=O	inactive
CCOC(=O)c1cnc2sc3ccc4ccccc4c3n2c1=O	inactive

Which outcome did this test record for the compound COc1ccc(CNc2cnc3cc(N)ccc3n2)cc1 ?
inactive

Which outcome did this test record for the compound Cc1cc(OCc2nnc3n2N=C(c2cc(F)c(Cl)cc2Cl)/C(=C/c2ccc(Cl)cc2)S3)ccc1Cl ?
inactive

Which outcome did this test record for the compound CCCC(CC)c1cc(O)c(O)cc1C(CC)CCC (stereo unspecified) ?
inactive

Which outcome did this test record for the compound CN(CC(=O)O)Cc1c[nH]c2ccccc12 ?
inactive

Which outcome did this test record for the compound O=c1c2ncn(C3CCCCO3)c2n(-c2ccccc2)c(=S)n1-c1ccccc1 (stereo unspecified) ?
inactive

Which outcome did this test record for the compound Cc1ccc(S(=O)(=O)NCCN(CCNS(=O)(=O)c2ccc(C)cc2)S(=O)(=O)c2ccc(C)cc2)cc1 ?
inactive

Which outcome did this test record for the compound COc1cc(/C=C/c2ccc(S(N)(=O)=O)cc2)cc(OC)c1 ?
inactive
